// reported IC50 for each item listed
Molecular target: NLRP3 (Homo sapiens, UniProt Q96P20)
Sequence (Q96P20 whole entry): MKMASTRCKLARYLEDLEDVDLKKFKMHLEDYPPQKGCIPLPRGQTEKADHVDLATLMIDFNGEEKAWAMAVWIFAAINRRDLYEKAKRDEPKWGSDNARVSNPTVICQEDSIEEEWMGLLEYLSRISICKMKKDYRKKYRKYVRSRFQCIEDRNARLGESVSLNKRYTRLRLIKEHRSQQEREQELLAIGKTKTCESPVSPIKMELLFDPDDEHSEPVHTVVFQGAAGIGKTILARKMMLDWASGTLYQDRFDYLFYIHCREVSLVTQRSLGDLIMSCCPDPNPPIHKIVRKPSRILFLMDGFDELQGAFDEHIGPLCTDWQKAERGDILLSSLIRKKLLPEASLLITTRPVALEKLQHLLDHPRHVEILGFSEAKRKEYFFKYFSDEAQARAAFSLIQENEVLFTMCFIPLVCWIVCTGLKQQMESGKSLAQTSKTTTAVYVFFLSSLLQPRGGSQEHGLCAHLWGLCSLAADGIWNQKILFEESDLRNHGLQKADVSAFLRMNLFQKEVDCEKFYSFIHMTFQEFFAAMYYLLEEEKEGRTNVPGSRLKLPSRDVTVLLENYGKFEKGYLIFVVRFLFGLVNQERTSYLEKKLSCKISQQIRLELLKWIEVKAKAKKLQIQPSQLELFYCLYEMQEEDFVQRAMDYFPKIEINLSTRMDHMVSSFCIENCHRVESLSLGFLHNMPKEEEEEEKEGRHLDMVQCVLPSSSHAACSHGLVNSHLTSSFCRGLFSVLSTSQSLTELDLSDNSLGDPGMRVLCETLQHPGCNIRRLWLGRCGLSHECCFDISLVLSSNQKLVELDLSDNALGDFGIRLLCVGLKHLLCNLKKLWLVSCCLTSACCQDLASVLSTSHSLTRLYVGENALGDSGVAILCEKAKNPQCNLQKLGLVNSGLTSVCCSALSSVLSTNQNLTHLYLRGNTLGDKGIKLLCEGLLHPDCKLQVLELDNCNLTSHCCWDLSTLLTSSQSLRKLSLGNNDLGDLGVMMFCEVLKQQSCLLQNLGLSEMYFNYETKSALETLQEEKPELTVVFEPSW
Test: THP-1 cells pyroptosis assay (LPS primed, nigericin stimulated, resazurin readout)
Type: cell-based
Set-up: endogenous in cells; host or cells: THP-1 cells (ATCC TIB-202)
Conditions: THP-1 pyroptosis Assay IC50, THP-1 cells, 1 μg/ml LPS, 5 μM nigericin, 3 h compound pre-incubation
OBSERVATION TYPE: IC50 (nM)

>>> df
                                   compound  reading_unit  assay_result
0  Oc1c(-c2nnc(NCC3CCOC3)c3cnccc23)ccc2c1CCO2 (racemic) [Example 5]            nM            38
1  Oc1c(-c2nnc(N[C@H]3CC[C@H](O)CC3)c3cnccc23)ccc2c1CCO2            nM            56
2  Oc1c(-c2nnc(N[C@H]3CC[C@@H](O)CC3)c3cnccc23)ccc2c1CCO2            nM            57
3  O[C@@H]1CCCC[C@H]1Nc1nnc(-c2ccc3cc[nH]c3c2)c2ccncc12 (racemic)            nM            99

----------
Target: human ether-i-go-go-related gene (hERG) cardiac potassium channel (Homo sapiens, UniProt Q12809)
Construct: whole-cell automated patch clamp, SynchroPatch 384, 35-37 °C
Sequence (Q12809 whole entry): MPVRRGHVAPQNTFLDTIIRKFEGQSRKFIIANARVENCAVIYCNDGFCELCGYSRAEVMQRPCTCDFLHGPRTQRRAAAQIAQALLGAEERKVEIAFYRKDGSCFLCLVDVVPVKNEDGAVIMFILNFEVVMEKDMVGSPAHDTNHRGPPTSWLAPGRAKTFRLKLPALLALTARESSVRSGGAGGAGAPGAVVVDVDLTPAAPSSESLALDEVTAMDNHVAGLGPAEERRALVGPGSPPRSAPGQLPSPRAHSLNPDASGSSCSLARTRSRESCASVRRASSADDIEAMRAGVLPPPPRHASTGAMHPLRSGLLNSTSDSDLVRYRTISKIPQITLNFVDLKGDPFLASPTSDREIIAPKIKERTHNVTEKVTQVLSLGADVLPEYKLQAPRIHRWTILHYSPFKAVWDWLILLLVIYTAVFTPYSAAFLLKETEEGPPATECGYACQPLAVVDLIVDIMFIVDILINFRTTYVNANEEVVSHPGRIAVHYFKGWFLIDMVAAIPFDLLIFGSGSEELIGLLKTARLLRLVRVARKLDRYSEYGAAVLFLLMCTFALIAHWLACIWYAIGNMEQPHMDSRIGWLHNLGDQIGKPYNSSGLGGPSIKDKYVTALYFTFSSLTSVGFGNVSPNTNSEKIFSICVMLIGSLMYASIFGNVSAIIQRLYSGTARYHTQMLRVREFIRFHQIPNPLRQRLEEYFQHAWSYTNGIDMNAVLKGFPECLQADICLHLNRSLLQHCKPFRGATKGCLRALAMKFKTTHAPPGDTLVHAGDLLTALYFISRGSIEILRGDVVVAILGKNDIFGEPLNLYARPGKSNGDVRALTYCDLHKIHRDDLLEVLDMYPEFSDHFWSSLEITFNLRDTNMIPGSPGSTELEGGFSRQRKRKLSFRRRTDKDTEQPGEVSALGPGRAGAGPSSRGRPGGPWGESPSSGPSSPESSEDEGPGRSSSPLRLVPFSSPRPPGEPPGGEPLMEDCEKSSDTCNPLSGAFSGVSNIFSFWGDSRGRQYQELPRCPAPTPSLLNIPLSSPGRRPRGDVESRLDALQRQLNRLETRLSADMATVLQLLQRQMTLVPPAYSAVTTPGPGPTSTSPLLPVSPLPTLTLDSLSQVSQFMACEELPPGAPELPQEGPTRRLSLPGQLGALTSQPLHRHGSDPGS
Assay: hERG screening assay (automated patch clamp, CHO crelox hERG cells)
Type: cell-based
Settings: SynchroPatch 384, 35-37 °C, 0.1 Hz, read-out: hERG inhibition IC20
OBSERVATION TYPE: IC20

>>> df
                                   compound  assay_result
0  Oc1c(-c2nnc(N[C@H]3CCCC[C@@H]3O)c3cnccc23)ccc2c1CCO2 (relative stereo) [Example 2B]       > 10 µM
1  Oc1c(-c2nnc(N[C@@H]3CCOC[C@@H]3O)c3cnccc23)ccc2c1CCO2 [Example 15]       > 10 µM

----------
Molecular target: NLRP3 (Homo sapiens)
Assay: THP-1 cells pyroptosis assay (LPS primed, nigericin stimulated, resazurin readout)
Assay type: cell-based
Parameters: endogenous in cells; host or cells: THP-1 cells (ATCC TIB-202)
Details: THP-1 pyroptosis Assay IC50, THP-1 cells, 1 μg/ml LPS, 5 μM nigericin, 3 h compound pre-incubation
pIC50: −log10 of the molar value.
// reported pIC50 for each item listed
OBSERVATION TYPE: pIC50

>>> df
                                   compound  observation_type  assay_result
0  Fc1c[nH]c2cc(-c3nnc(NCC4CCOC4)c4cnccc34)ccc12 (single isomer, unassigned) [Example 4B]             pIC50          6.68
1  Fc1c[nH]c2cc(-c3nnc(NCC4CCOC4)c4cnccc34)ccc12 (single isomer, unassigned) [Example 4A]             pIC50          6.87
2  Oc1c(-c2nnc(NCC3CCCO3)c3cnccc23)ccc2c1CCO2 (single isomer, unassigned) [Example 6B]             pIC50          7.20
3  Oc1c(-c2nnc(NCC3CCOC3)c3cnccc23)ccc2c1CCO2 (single isomer, unassigned) [Example 5A]             pIC50          7.54
4  Oc1c(-c2nnc(NCC3CCCO3)c3cnccc23)ccc2c1CCO2 (single isomer, unassigned) [Example 6A]             pIC50          7.24
5  COCc1cc2c(c(O)c1-c1nnc(N[C@@H]3CCCC[C@H]3O)c3cnccc13)CCO2             pIC50          7.68
6  Oc1c(-c2nnc(NCC3CCOC3)c3cnccc23)ccc2c1CCO2 (single isomer, unassigned) [Example 5B]             pIC50          7.19

Reference source for all entries: patent US20260347355A1
